Assay: JC-1 mitochondrial signal, unstimulated adipocytes – cell-based, JC-1 fluorescence, 3T3-L1 adipocytes, 24 h, 100 nL compound, profiling panel (AID 1168)
Details: JC-1 mitochondrial fluorescence, higher = more signal, called active from +8 up or from −8 down
Exercise: for every item that follows, state its recorded z-score.
One number for each entry.

Each molecule below has a recorded value; state its z-score.
1. [N-]=[N+]=NCc1ccccc1C[C@]1(C(=O)N2CCOCC2)N=C(c2ccc(OCCCO)cc2)O[C@H]1c1ccccc1
2. CCCCCN1CC=CC23O[C@@H]4C=CCCOC(=O)C4[C@H]2C(=O)N(CCCO)[C@@H]3C1=O (some centres undefined)
3. OCCCc1cc[n+](Cc2cccc(OC(F)(F)F)c2)cc1
4. CCN(CC)c1ccc(N2CC=CC34O[C@@H]5C=CCOC(=O)[C@@H]5[C@H]3C(=O)N(CCCCCO)[C@@H]4C2=O)cc1 (some centres undefined)

Result string:
1. -0.296
2. -0.361
3. -0.487
4. 0.876

----------
System: XIP peptide (Xip251-270) binding
Test: XIP fragment 251-270 binding compounds – biochemical, small-molecule microarray, fluorescence 635/667 nm, 0.1 µg/mL protein, primary screen (AID 1182)
Conditions: fluorescent protein binding, 635 nm, higher = more signal, called active from +8 up or from −8 down
assayMetric: composite z-score
One number for each entry.

Would you please look over these solved cases?
molecule | studyTarget | composite z-score
O=C(NCc1ccccc1)[C@@H]1c2ccccc2C(=O)N(C2CCCCC2)[C@H]1c1ccc(CO)cc1 | XIP peptide (Xip251-270) binding | 0.81
CC(c1ccccc1)C(O)C1C=CC2C(=O)N(Cc3ccccc3)C(=O)C2N1n1cnnc1 (configuration not stated) | XIP peptide (Xip251-270) binding | -0.429
C=C(CCCC)C(=O)CC[C@H](OC(C)=O)c1ccc(CO)o1 | XIP peptide (Xip251-270) binding | 0.35
CC(C)N1C(=O)c2ccccc2[C@](C)(C(=O)NC2CC2)[C@@H]1c1ccc(CO)cc1 | XIP peptide (Xip251-270) binding | -0.318
CO[C@H]1O[C@H](CO)[C@@H](OC(=O)Nc2ccc3c(c2)OCO3)[C@H](OC(=O)Nc2ccc3c(c2)OCO3)[C@H]1OC(=O)Nc1ccc2c(c1)OCO2 | XIP peptide (Xip251-270) binding | 2.3

Each molecule below has a recorded value; state its composite z-score.
1. CN1C(=O)C2C=CC(C(O)c3ccccc3)N(NC(=O)OC(C)(C)C)C2C1=O (configuration not stated)
2. COc1ccc([Si](C)(C)[C@@H]2[C@@H](CC(=O)N3Cc4ccccc4C[C@H]3CO)O[C@]3(C(=O)N(Cc4cccc(N5C(=O)COc6ccccc65)c4)c4ccccc43)[C@H]2C)cc1
3. O=C1C2C=CC(C(O)c3cccc4ccccc34)N(n3cnnc3)C2C(=O)N1Cc1ccccc1 (configuration not stated)
4. CN1C(=O)C2C(C1=O)C1C=C(c3ccc(CO)cc3)C2C(C2CC2)N1Cc1cc2c(cc1Br)OCO2 (configuration not stated)
5. COc1ccc([Si](C)(C)[C@@H]2[C@@H](CCn3cc([C@H](O)c4ccccc4)nn3)O[C@]3(C(=O)N(C)c4ccccc43)[C@H]2C)cc1

Result string:
1: 0.4; 2: 1.16; 3: -0.0195; 4: 2.71; 5: -0.558

Each molecule below has a recorded value; state its composite z-score.
1. COC(=O)C(CC#Cc1ccc2c(c1)[C@]1(C(=O)N2)[C@H](C(=O)N2CCCCCCC2)[C@H]2C(=O)O[C@H](c3ccccc3)[C@H](c3ccccc3)N2[C@@H]1c1ccccc1OCCO)C(=O)OC
2. C[C@]1(C(=O)NCC(F)(F)F)c2ccccc2C(=O)N(Cc2cc(F)cc(C(F)(F)F)c2)[C@H]1c1ccc(CO)cc1
3. COCCn1c(C(=O)N2CCCC2)cc2c1C[C@H]1CN(C(=O)c3ccccc3)[C@@](Cc3ccc(OC)cc3)(C(=O)OC)[C@@H]21
4. C=CCOC(=O)[C@@H]1[C@H]2C(=O)O[C@H](c3ccccc3)[C@H](c3ccccc3)N2[C@H](c2ccc(OCCOC(=O)[C@H]3C[C@H]4C(=O)N[C@@H](Cc5ccccc5)C(=O)N4[C@H]3c3ccc(O)cc3)cc2)[C@@]12C(=O)Nc1ccc(I)cc12
5. COCCCNC(=O)[C@]1(Cc2ccccc2N=[N+]=[N-])N=C(c2ccc(OCCCO)cc2)O[C@@H]1c1ccccc1CN=[N+]=[N-]
6. CCCCCCC#C[Si](O[C@H](c1ccccc1)c1cn([C@H](C)c2ccccc2)nn1)(C(C)C)C(C)C

Result string:
[8, 0.362, 0.541, 2.09, 0.0423, -0.131]

Each molecule below has a recorded value; state its composite z-score.
1. C[C@H]1C2[C@H](Cc3ccccc3)NC(=O)[C@]23C(=O)N[C@H](Cc2ccccc2)C(=O)N[C@H](Cc2ccccc2)C(=O)NC/C=C/CCC/C=C/C3[C@@H]2O[C@]12C (some centres not stated)
2. Cc1ccc(S[C@]2(C(=O)NCC(C)C)CC(=O)N(Cc3ccccc3)[C@@H]2c2ccc(CO)cc2)cc1
3. C=CCOC(=O)[C@H]1[C@@H]2C(=O)O[C@@H](c3ccccc3)[C@@H](c3ccccc3)N2[C@@H](c2ccc(OCCOC(=O)[C@H]3C[C@H]4C(=O)N[C@@H](CCCC[N+](C)(C)C)C(=O)N4[C@H]3c3ccc(O)cc3)cc2)[C@]12C(=O)Nc1ccccc12
4. CC[C@@H]1C=C(C(=O)O)[C@H](c2ccc(C(C)C)cc2)N1S(=O)(=O)c1ccc(C)cc1
5. C=C[C@@H](C)[C@@H](OC(=O)Nc1ccc(OC)cc1)c1ccc(O)c2ccccc12
6. COCCOC(=O)N1C(=O)[C@@]2(c3cc(C#CC4=CCCCC4)ccc31)[C@H](C(=O)N1CCN(c3ncccn3)CC1)[C@H]1C(=O)O[C@H](c3ccccc3)[C@H](c3ccccc3)N1[C@@H]2c1ccc(OCCO)cc1
7. COc1ccc([Si](C)(C)[C@H]2[C@H](CC(=O)N3Cc4ccccc4C[C@H]3CO)O[C@@]3(C(=O)N(Cc4cccc(I)c4)c4ccccc43)[C@@H]2C)cc1
8. C=CCN1C(=O)[C@]2(COC(c3ccc(OCCCO)cc3)=N2)Cc2ccccc21

Result string:
0.353
1.34
-0.436
0.719
1.36
0.499
-0.276
2.53

Each molecule below has a recorded value; state its composite z-score.
1. CN(C)CCCN1C(=O)[C@@]2(c3ccc([N+](=O)[O-])cc3)CC(=O)N(C3CCCCC3)[C@@H]2c2ccc(CO)cc21
2. O=C1OCC=C[C@H]2OC34C=CCN(c5ccc6ccccc6c5)C(=O)[C@H]3N(CCO)C(=O)[C@@H]4[C@@H]12 (some centres not stated)
3. Cc1ccc(S(=O)(=O)N2CC(C(=O)O)=CCC2c2ccccc2)cc1 (configuration not stated)

Result string:
1. -0.157
2. 0.594
3. 0.624
